Species on record: Rattus norvegicus
Assay: Selectivity ratio of IC50 for rat GlyT2 to IC50 for rat GlyT1
metric.name: Ratio IC50

- CCc1nnc(-c2ccc(-c3ccccc3)cc2)n1-c1cccc2cccnc12: 1.3

[I] CCc1nnc(-c2ccc(-c3ccccc3)cc2)n1-c1cccc2ncccc12
[II] CCc1nnc(-c2ccc(-c3ccccc3)cc2)n1-c1ccccc1F
[III] CCc1nnc(-c2ccc(-c3ccccc3)cc2)n1-c1cccc2ccncc12
Input line: Descending sort on Ratio IC50 required. Show the ranking through the labels, in the order asked for.
Output line: III, I, II
(III: 5.3, I: 3.3, II: 1)

* * *

Target: Sodium- and chloride-dependent glycine transporter 1 (Rattus norvegicus)
Sequence (whole entry): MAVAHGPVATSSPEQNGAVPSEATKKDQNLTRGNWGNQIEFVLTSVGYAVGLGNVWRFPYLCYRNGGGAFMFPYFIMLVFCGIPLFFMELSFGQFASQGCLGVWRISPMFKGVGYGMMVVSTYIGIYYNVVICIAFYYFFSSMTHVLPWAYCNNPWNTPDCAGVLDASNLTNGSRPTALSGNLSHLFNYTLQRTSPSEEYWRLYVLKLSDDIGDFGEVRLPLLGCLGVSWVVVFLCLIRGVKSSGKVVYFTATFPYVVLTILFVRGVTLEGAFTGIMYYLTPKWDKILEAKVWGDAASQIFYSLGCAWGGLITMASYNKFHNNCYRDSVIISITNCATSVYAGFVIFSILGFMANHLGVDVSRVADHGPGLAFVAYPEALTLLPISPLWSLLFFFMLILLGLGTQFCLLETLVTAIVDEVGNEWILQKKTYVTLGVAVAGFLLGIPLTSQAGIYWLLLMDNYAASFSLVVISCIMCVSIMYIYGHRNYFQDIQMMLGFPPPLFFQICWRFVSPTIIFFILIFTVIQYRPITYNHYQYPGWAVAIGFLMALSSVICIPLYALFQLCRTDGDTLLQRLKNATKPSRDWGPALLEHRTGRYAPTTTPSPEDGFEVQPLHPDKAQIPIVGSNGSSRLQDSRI
Assay: Displacement of [3H]glycine from rat GlyT1 expressed in rat C6 cells at 10 uM after 30 mins by scintillation counting
Type: cell-based
metric.name: inhibition (%)

Please review the following examples before continuing.
• CCc1nnc(-c2ccc(-c3ccccc3)cc2)n1-c1cccc2c[n+]([O-])ccc12 = 28
• CCc1nnc(-c2ccc(-c3ccccc3)cc2)n1C(C)c1ccncc1 (stereo not given) = 36
• CCc1nnc(-c2ccc(-c3ccccc3)cc2)n1Cc1ccncc1 = 15

[A] CCc1nnc(-c2ccc(-c3ccccc3)cc2)n1-c1cccc2c(=O)[nH]ccc12
[B] CCc1nnc(-c2ccc(-c3ccccc3)cc2)n1-c1cccc2c1CCNC2
Input line: Between these two entries, A and B , state which has the higher inhibition. Pick one and reply with its label.
Output line: B
